Reported IC50 on Oxytocin receptor (Rattus norvegicus, UniProt P70536) for assorted compounds, compiled from publications.
# value in nM; strip the unit string

Enquiry: Entry COc1cc(C(=O)N2CCCC(CC(=O)N(C)C)c3cc(Cl)ccc32)ccc1NC(=O)c1ccccc1C (centres unmarked) has what IC50?
Return: 610

Enquiry: Please answer likewise for "CCCCOc1ccc(C(=O)N2Cc3ccccc3Cc3ccccc32)cc1"
Return: 1800

Enquiry: Please answer likewise for "O=C(Nc1ccc(C(=O)N2Cc3cccn3Cc3ccccc32)c(Cl)c1)c1ccc(F)cc1Cl"
Return: 450

Enquiry: Please answer likewise for COc1cc(NC(=O)Cc2ccccc2C)ccc1C(=O)N1CCCC(OC(=O)CN(C)C)c2cc(Cl)ccc21 (centres unmarked)
Return: 230

Enquiry: Please answer likewise for COc1cc(C(=O)N2CCCC(OCC(=O)NCCN3CCCCC3)c3cc(Cl)ccc32)ccc1NC(=O)c1ccccc1Br (centres unmarked)
Return: 177
